Molecular target: T1, HER2 immobilised on a Biacore chip (UniProt P04626 23-652, limits assumed)
T1 construct: also called immobilised HER2 target antigen (Biacore SPR); HER2 chip
Test: Biacore SPR, HER2 amine-coupled to the chip
observable: koff (s⁻¹)
Please reply with the bare figure in s⁻¹ and do not write the unit itself.

koff reported for this binder scFv (TCT)-MMAF-C5 ADC 1 (DAR 5.6) (scFv, MMAF-C5 (from MMAF-C5-NHS, compound 78) on lysine residues; DAR 6.64 by AAA, 4.5 by MS, average 5.6, also called scFv (TCT)-MMAF-C5 1 DAR 5.6; scFv (TCT)-MMAF-C5, DAR 6.6) scFv: SGSGGSGQVQLVQSGAEVKKPGESLKISCKGSGYSFTSYWIAWVRQMPGKGLEYMGLIYPGDSDTKYSPSFQGQVTISVDKSVSTAYLQWSSLKPSDSAVYFCARHDVGYCSSSNCAAWPEYFQHWGQGTLVTVSSGGGGSGGGGSGGGGSQSVLTQPPSVSAAPGQKVTISCSGSSSNIGNNYVSWYQQLPGTAPKLLIYGHTNRPAGVPDRFSGSKSGTSASLAISGFRSEDEADYYCAAWDDSLSGWVFGGGTKLTVLMASMTGGQQMG : 0.0042
